For each entry below, report its Fold Ehancement over Lipid Alone value.
- Test system: NIH 3T3
- assayOverview: Transfection with β-galactosidase reporter plasmid pCMVSPORT-β-gal, β-gal activity (ONPG)
- Type: cell-based
- runConditions: NIH 3T3 cells; DMS lipid (1:1 DOPE), 1.0 μg plasmid DNA, 1.0 ug peptide; β-gal activity OD 405 nm
- Method: Transfection of, NIH3T3, HepG2, Human Fibroblast, Jurkat and Cos-7 and with β-galactosidase reporter plasmid pCMV[…]SPORT-β-gal was carried out as follows: Cells were plated in 96-well plates with 100 μl of media containing 10% fetal calf serum the day before transfection such that a desired confluency (70%-95%) was achieved the following day. […] Total activity was determined by reading the OD at 405 nm using a Bio-Rad Benchmark Microplate Spectrophotometer.
The reply should be a number in Fold, with the unit left off.

### Prompt Entry (K)16YYCLQSMEDPYTFGG [Peptide #7] has what Fold Ehancement over Lipid Alone?
### Response 1.46

### Prompt Entry (K)16DYYCAAWDDSLNGYSVF [Peptide #5] has what Fold Ehancement over Lipid Alone?
### Response 2.5

### Prompt Entry (K)16YYCDIRLRDP [Peptide #1] has what Fold Ehancement over Lipid Alone?
### Response 1.7

### Prompt Entry (K)16YYCQQSYSTPWTFGQGTK [Peptide #10] has what Fold Ehancement over Lipid Alone?
### Response 2.1

### Prompt Entry (K)16VELDSFDY [Peptide #4] has what Fold Ehancement over Lipid Alone?
### Response 1.65

### Prompt Entry (K)16NSRDSSGIQNV [Peptide #2] has what Fold Ehancement over Lipid Alone?
### Response 0.89

### Prompt Entry (K)16AAWDDSLGI [Peptide #3] has what Fold Ehancement over Lipid Alone?
### Response 1.5
